# key: entry, value: OKT4 A488 signal (FACS binning)
- target.or.system: T1, human CD4 on cells (SKW3 cells; human PBMCs) (human, UniProt P01730 26-458)
- T1 construct: whole, on cells; The SKW3 CD4 knockout cells served as the negative cell line; also called hCD4
- assay.protocol: FACS binning on SKW3 cells after supernatant; competitor OKT4-A488; background 2163, max binding 8200
// no unit string in output, number only

75110_08H06A (antibody, V domains shown, Tested as non-clonal hybridoma supernatant from AlivaMab Mouse Kappa mice, detected with anti-mouse Fc and anti-human Kappa) VH: EVQLVESGGGLVQPGGSLRLSCAASGFTFSNYDMHWVRQATGKGLEWVSTIGTAGDTYYPGSVKGRFTISRENAKNSLYLQMNSLRAGDTAVYYCARGGYDYYGMDVWGQGTTVTVSS VL: EIVLTQSPGTLSLSPGERATLSCRASQSITSIYLAWYRQKPGQAPRLLIYGASSRATGIPDRFSGSGSGTDFTLTISRLEPEDFAVYYCQQYGSSPFTFGPGTKVDIK ... 10400
75110_10N21A (antibody, V domains shown, Tested as non-clonal hybridoma supernatant from AlivaMab Mouse Kappa mice, detected with anti-mouse Fc and anti-human Kappa) VH: EVQLVESGGGLVQPGGSLRLSCAASGFTFSSYDMHWVRQVTGKGLEWVSTIGTAGDTYYPGSVKGRFTISRENAKNSLYLQMNSLRAGDTAVYYCARGGYYYYGMDVWGQGTTVTVSS VL: EIVLTQSPGTLSLSPGERATLSCRASQSFISSYLAWYQQKPGQAPRLLIYGASSRATGIPDRFSGSGSGTDFTLTISRLDPEDFAVYYCQQSGNSPFTFGPGTKVDVK ... 9090
75110_01H18A (antibody, V domains shown, Tested as non-clonal hybridoma supernatant from AlivaMab Mouse Kappa mice, detected with anti-mouse Fc and anti-human Kappa) VH: QVQLQQWGAGLLKPSETLSLTCAVYGGSFSGYYWSWIRQSPGKGLEWIGEINQSGSTNYNPSLKSRVTISVDTSKNQFSLKLSSVTAADTAVYYCARVINWFDSWGQGTLVTVSS VL: DIQMTQSPSSVSASVGDRVTITCRASQGISSWLAWYQQKPGKAPKLLIYAASSFQSGVPSRFSGSGSGTDFTLTISSLQTEDFATYYCQQANSFPYTFGQGTRLEIK ... 9840

Consider the record given below.
OKT4 A488 signal (FACS binning) in this record for 75110_10K21A (antibody, V domains shown, Tested as non-clonal hybridoma supernatant from AlivaMab Mouse Kappa mice, detected with anti-mouse Fc and anti-human Kappa) VH: EVQLVESGGGLVQPGGSLRLSCAASGFTFSSYWMTWVRQAPGKGLEWVANIKQDGSEKYYVDSVKGRFTISRDNAKNSLYLQMNSLRAEDTAVYYCVRDRYDALDIWGQGTMVTVSS VL: AIQMTQSPSSLSASVGDRVTITCRASQGIRNDLNWYQQKPGKAPKLLIYAASSLQSGVPSRFSGSGSGTDFTLTISSLQAEDFATYYCLKDYNYPYTFGQGTKLEIK : 9980
